Target: Human Factor P (human, UniProt P27918 29-469)
Sequence (P27918 29-469 limits assumed): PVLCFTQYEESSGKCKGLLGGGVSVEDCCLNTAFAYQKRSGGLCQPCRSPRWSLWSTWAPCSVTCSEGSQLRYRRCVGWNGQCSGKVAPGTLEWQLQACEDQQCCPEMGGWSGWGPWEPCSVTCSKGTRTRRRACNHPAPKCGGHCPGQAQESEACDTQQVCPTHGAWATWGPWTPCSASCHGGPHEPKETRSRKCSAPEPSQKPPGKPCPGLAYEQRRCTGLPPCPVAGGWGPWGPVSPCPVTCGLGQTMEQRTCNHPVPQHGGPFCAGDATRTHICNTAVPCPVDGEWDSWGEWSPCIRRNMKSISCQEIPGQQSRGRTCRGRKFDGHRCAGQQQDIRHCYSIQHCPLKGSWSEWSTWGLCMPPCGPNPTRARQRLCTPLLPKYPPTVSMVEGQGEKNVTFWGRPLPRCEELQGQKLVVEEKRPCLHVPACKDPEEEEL
Test: cell-based or functional assay
valueKind: Hemolytic assay IC50 (nM), 10% serum
Give just the numeric value; nM need not be written.

Sample answers from the record:
Summary for this binder, NVS805 (Fab, V domains shown) VH: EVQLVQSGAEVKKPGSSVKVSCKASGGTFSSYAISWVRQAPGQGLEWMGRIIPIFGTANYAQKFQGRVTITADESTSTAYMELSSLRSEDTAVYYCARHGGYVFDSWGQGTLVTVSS VL: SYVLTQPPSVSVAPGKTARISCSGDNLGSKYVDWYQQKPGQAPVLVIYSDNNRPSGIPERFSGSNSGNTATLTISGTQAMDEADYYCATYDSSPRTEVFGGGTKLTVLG : Hemolytic assay IC50 (nM), 10% serum is 12.8

Query NVS965-Q (Fab, V domains shown, NVS965 with heavy chain N30 replaced with glutamine) VH: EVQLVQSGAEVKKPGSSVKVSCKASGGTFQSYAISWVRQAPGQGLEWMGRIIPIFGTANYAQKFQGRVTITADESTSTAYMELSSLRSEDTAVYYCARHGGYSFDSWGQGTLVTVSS VL: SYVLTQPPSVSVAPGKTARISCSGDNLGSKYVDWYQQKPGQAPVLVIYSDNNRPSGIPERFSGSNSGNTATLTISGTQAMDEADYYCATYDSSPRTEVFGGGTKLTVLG yields Hemolytic assay IC50 (nM), 10% serum of 9.71

Continuing:
# Hemolytic assay IC50 (nM), 10% serum of NVS962-T (Fab, V domains shown, NVS962 with heavy chain N30 replaced with threonine; also called NSV962-T) VH: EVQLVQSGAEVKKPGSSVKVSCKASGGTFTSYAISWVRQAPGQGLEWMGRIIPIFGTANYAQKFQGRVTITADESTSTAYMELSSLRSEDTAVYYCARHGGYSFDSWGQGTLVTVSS VL: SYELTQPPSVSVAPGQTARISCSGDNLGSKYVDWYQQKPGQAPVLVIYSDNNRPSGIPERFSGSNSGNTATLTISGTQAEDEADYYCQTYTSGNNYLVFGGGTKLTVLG = 9.31
